Hey, just so you know, these numbers are from paper PMC5629366.

target: IDH2R172K (Homo sapiens, UniProt P48735, R172K); assay: R-2HG levels in mouse hematopoietic cells expressing IDH2R172K
Sequence (P48735 40-452 R172K): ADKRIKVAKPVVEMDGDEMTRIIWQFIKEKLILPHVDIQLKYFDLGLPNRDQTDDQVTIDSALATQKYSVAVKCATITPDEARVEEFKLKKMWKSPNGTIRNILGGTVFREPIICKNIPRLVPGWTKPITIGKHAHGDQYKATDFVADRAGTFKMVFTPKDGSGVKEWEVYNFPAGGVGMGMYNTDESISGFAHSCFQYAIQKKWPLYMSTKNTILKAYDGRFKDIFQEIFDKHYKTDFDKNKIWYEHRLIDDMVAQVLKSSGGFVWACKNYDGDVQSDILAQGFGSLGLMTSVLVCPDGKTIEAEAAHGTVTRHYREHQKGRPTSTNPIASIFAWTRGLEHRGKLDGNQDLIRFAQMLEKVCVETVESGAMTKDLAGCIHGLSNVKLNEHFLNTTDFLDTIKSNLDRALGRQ
pIC50: −log10 of the molar value.
metric: pIC50

> print(dat)
                              smiles.string                         target.under.test  metric  reported.measurement
1  C[C@H]1C[C@@H](n2c(Nc3ccc(OC(F)(F)F)cc3)nc3cc(CCC(=O)O)ccc32)CC(C)(C)C1  IDH2R172K (Homo sapiens, UniProt P48735, R172K)   pIC50                < 5.00

====

target: IDH2R140Q (Homo sapiens, UniProt P48735, R140Q); assay: R-2HG levels in mouse hematopoietic cells expressing IDH2R140Q
Sequence (P48735 40-452 R140Q): as the sequence (P48735 40-452 R172K) above, with R101Q, K133R counted along it
metric: IC50

> print(dat)
                              smiles.string  reported.measurement
1  C[C@H]1C[C@@H](n2c(Nc3ccc(OC(F)(F)F)cc3)nc3cc(CCC(=O)O)ccc32)CC(C)(C)C1               > 10 µM
